Target: T1, unglycosylated, monobiotinylated extracellular domain of human CD98hc produced in E. coli (human, UniProt P08195 111-529, single biotin on the N-terminal biotin acceptor peptide (BAP))
T1 construct: also called hCD98hcED; CD98hcED; not shown: N-terminal biotin acceptor peptide (BAP) from pASK-IBA5(+)-BAP-hCD98hcED
T1 sequence: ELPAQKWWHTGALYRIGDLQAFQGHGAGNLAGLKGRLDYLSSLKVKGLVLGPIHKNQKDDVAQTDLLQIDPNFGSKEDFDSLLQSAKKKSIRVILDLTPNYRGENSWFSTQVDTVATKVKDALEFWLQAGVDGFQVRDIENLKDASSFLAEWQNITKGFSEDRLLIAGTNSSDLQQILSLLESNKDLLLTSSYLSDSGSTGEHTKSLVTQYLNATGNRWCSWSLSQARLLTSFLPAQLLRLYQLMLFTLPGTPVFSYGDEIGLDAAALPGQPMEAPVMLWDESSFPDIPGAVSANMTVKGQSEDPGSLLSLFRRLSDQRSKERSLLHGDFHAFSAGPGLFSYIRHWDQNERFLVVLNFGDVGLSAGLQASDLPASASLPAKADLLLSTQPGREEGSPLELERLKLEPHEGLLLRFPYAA
Assay: SPR, complex dissociation half-life
Let's look at some binders and their measured T½.
Reply with just the number (in h).

Worked examples follow.
lipocalin variant D11vs (designed binder, P3D11 variant with Phe71Ser and Gly81Val; also called Anticalin D11vs; not shown: C-terminal His6-tag (plasmid pNGAL118) as for the other soluble lipocalin variants) QDSTSDLIPAPPLSKVPLQQNFQDNQFHGKWYVVGRAGNTGLREDKDPGKMFATIYELKEDKSYNVTYVWSGQKKCMYSIVTFVPGSQPGEFTLGNIKSAPGRTSWLVRVVSTNYNQHAMVFFKSVTQNREGFAITLYGRTKELTSELKENFIRFSKSLGLPENHIVFPVPIDQCIDG :: 7.37
lipocalin variant P3A12 (designed binder, produced soluble in E. coli JM83, monomeric; also called Anticalin P3A12; not shown: C-terminal His6-tag (plasmid pNGAL118)) QDSTSDLIPAPPLSKVPLQQNFQDNQFHGKWYVVGRAGNLGLREDKDPAKMFATIYELKEDKSYNVTYVWFDLKKCKYSIHTFVPGSQPGEFTLGKIKSGPGHTSWLVRVVSTNYNQHAMVFFKWVGQNRENFAITLYGRTKELTSELKENFIRFSKSLGLPENHIVFPVPIDQCIDG :: 1.13

Just so you know, measured T½ for lipocalin variant P1E4 (designed binder, produced soluble in E. coli JM83, monomeric; also called Anticalin P1E4; not shown: C-terminal His6-tag (plasmid pNGAL118)) QDSTSDLIPAPPLSKVPLQQNFQDNQFHGKWYVVGIAGNSMLREDKDPFKMTATIYELKEDKSYNVTRVRFDDKKCLYRILTFVPGSQPGEFTLGNIKSRPGWTSWLVRVVSTNYNQHAMVFFKRVHQNRETFWITLYGRTKELTSELKENFIRFSKSLGLPENHIVFPVPIDQCIDG came out at 0.0183

Short answer for lipocalin variant P3D11 (designed binder, produced soluble in E. coli JM83, monomeric; also called Anticalin P3D11; not shown: C-terminal His6-tag (plasmid pNGAL118)) QDSTSDLIPAPPLSKVPLQQNFQDNQFHGKWYVVGRAGNTGLREDKDPGKMFATIYELKEDKSYNVTYVWFGQKKCMYSIGTFVPGSQPGEFTLGNIKSAPGRTSWLVRVVSTNYNQHAMVFFKSVTQNREGFAITLYGRTKELTSELKENFIRFSKSLGLPENHIVFPVPIDQCIDG : T½ was 5.99
